Entries and their yeast fitness values follow.
B1: tRNA (parent)
chain: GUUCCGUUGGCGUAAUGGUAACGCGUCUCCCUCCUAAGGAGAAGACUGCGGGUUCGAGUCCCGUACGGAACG

Variants of: B1
Test: yeast fitness relative to wild type (ratio to wild type); higher = fitter; tRNA-Arg(CCU), competitive growth, 37 C, YPD
Variants at the floor of the assay were thinned out.
measurement-kind: yeast fitness

In [3]: df
Out[3]:
                          construct_sequence  measurement_kind  value_qualifier  numeric_value
 0  GUUCCGUUGGCGUAAUGGUGACGCGUCUCCCUCCUAAGGAGAAGACUGCGGGUUCGAGUUCCGUACGGAACG [A20G C60U]     yeast fitness                =          0.744
 1  GUUCCGUUGGCGUAAUGGUAACGCGUCUCCCUCCUAAGGAGAAAACCGCGGGUUCGAGUCCCGUACGGAACG [G44A U47C]     yeast fitness                =          0.979
 2  GUUUCGUUGACGUUAUGGUAACGCGUCUCCCUCCUAAGGAGAAGAUUGCGGGUUCGAGUCCCGUACGGAACG [C4U G10A A14U C46U]     yeast fitness                ≤            0.5
 3  GUUUGGUUGGCGUAAUGGUAACGCGUCUGCGUCCUACGGAGAAGACUGCGGGUACGAGUCCCGUACGGAACG [C4U C5G C29G C31G A37C U54A]     yeast fitness                ≤            0.5
 4  GUUCCGAUGGCGUAAUGGUAACGCGUCUCCCUCCUAAGGAGAAGACAGCGGGUUCGAGUCCCGUACGGAACG [U7A U47A]     yeast fitness                =          0.643
 5  GUUCCGUUGGCAUAAUGGUAACGCAUCUCGCUCCUAAGGAGAAGACUGCGGGUUCGACUCCCGUAAGGAACG [G12A G25A C30G G58C C66A]     yeast fitness                ≤            0.5
 6  GUUCCGUUGGCGUAAUGGUAACGCGUCUCCCUCCUAAGGGGAAGACUGCGGGUUCGAGUCCCGUACGUAACG [A40G G68U]     yeast fitness                =          0.857
 7  GUUCCGUAGGCGAAAUGGUAACGCGUCUCCCUCCUAAGGAGAAGACUCCGGGUUCGAGUCCCGUACGGAACG [U8A U13A G48C]     yeast fitness                =          0.516
 8  GUUCCCUUGGCGUCAUGGUAACGUGUCUACCUCCUAAGCAGAAGACUGCGGGUUCGAGUCCCGUACGGAACG [G6C A14C C24U C29A G39C]     yeast fitness                ≤            0.5
 9  GUUUCGUUGGCGUAAUGGUAACGCGUCUCCCUCCUAAGGAGUAGACUGCGGGUUCGAGUCCCGUACGGAACG [C4U A42U]     yeast fitness                =          0.944
10  GUUCCGUUCGCGUAAUGGUAACGCGUCUCCCUCCUAAGGUAAAGACUGCGGGUUCGAGUCCCGUACGGAACG [G9C A40U G41A]     yeast fitness                ≤            0.5
11  GUUCCGUUGGCGUAAUGGUGACGCGUCUCCCUUCUAAGAAGAAGACUGCGGGUUCGGGCCCCGUACGGAACG [A20G C33U G39A A57G U59C]     yeast fitness                =          0.517
12  GUUCCGUUGGCGUAAUGGUAAUGCGUGGCCCUCCUAAGGAGAAGACUGCGGGUUCGAGCCCCGUACGGAACG [C22U C27G U28G U59C]     yeast fitness                ≤            0.5
13  GUUCCGUUGGCGUAAUGGUAACGCGUCUCCCUCCUAAGGUGACGACUGCGGGUUCGAGUCCCGUACUGAACG [A40U A43C G67U]     yeast fitness                =          0.724
14  GUUCCGUUGGCGUAAUGGUAACGCGUCUCCCUCCUAAGGAGAAGACUGCGGGUUCGAGUCCCGUACUGUACG [G67U A69U]     yeast fitness                =          0.887
15  GUUCCGUUGGCGUAAUGGUAACGCGUAUCCCUCCUAACGAGAAGACUGCGCGUUCGAGUCCCGUACGGUACG [C27A G38C G51C A69U]     yeast fitness                ≤            0.5
16  GUUCCGUUGGCGUAAUGGUAACGCGUCUCCCUUCUAAUGAGAAGACUGCGGGUUCGAGUCCCGUACGGAACG [C33U G38U]     yeast fitness                =          0.632
17  GUGCCGUUGGCGUAAUGGUAACGCGUCUCCCUCCUAAGGAGAAGACUGCGAGUUCGAGUCCCGUACGGAACG [U3G G51A]     yeast fitness                =          0.701
18  GUUCCGCUGGAGUAAUGGUAACGCGUGUCCCUCCUAAGGAGAAGACUGCGGGUUCGGGUCCCGUACGGAACG [U7C C11A C27G A57G]     yeast fitness                ≤            0.5
19  GUUCCGUUGGCGUAAUGGUAACGCGUCUCCCUCCUAAGGAGAAGCCUGCGGGUUUGAGUCCCGUACGGCACG [A45C C55U A69C]     yeast fitness                ≤            0.5
20  GUUUCGUUGGCGUAAUGCUAACGCGUCUCCUUCCUAAGGAGAAGACUGCGGGUUCGAGUCCCGUACGGAACG [C4U G18C C31U]     yeast fitness                ≤            0.5
21  GUUCCGUUGGCGUAAUGGUAACGCGUAUCCCUCCUAAGCAGAAGACUGCGGGUUGGAGUCCCGUUCGGAACG [C27A G39C C55G A65U]     yeast fitness                ≤            0.5
